Origin of values: the supplement of paper PMC6555819

- Test system: THRa homodimer (NR concentration 90 nM)
- assayMethodText: PBM binding z-score (relative to random genomic background probes); higher = stronger binding; sequences stand for … in GC…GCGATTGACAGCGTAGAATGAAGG
assayReadout: PBM binding z-score
I'd appreciate a reply containing only the number, no unit.

As a guide, the following entries are already answered.
sequenceString	systemTested	valueObserved
CCTAGTTGGTCAAGGCCACACACGCTATAGGTAC	THRa homodimer (NR concentration 90 nM)	1.18
TCTCGGAGGACACGAAGGTCAGATCTTTCCAGAG	THRa homodimer (NR concentration 90 nM)	0.979
AGAATGAGGGTAAGATCAGGGAAACAGAATACAT	THRa homodimer (NR concentration 90 nM)	0.43
ACTAGTTCGTCAGCTGAGGTCACACACAATTCGG	THRa homodimer (NR concentration 90 nM)	5.07
ATCGAAAGGTCGACGAGGTCAGTATACACCGTTT	THRa homodimer (NR concentration 90 nM)	2.54

Recorded PBM binding z-score for ACTGGGAGGACAAAGGTCAGAGCTACGCCAGTGA with THRa homodimer (NR concentration 90 nM), please?
1.25

Recorded PBM binding z-score for GCGACTGGGGCAAAGCAGGTTTCCATAAGGTTGG with THRa homodimer (NR concentration 90 nM), please?
-0.028

Recorded PBM binding z-score for TTACCAAGGTGCAGGTCGTTGATCCCTCTGTAGA with THRa homodimer (NR concentration 90 nM), please?
0.0392

Recorded PBM binding z-score for CCTTACGGGTCACTGACATGTTATAGCATTTGGA with THRa homodimer (NR concentration 90 nM), please?
0.312

Recorded PBM binding z-score for CCTAGCAGGTCAATCTGGGTCACTCAAGGCTTGA with THRa homodimer (NR concentration 90 nM), please?
1.44

Recorded PBM binding z-score for TCATATAGGTAAATCCTAGGTGAAAGTCCGATCT with THRa homodimer (NR concentration 90 nM), please?
0.368

Recorded PBM binding z-score for CGTCAAAGTTCAAGGTAACCTAACAGAAAGCAGC with THRa homodimer (NR concentration 90 nM), please?
1.38

Recorded PBM binding z-score for CGAACTAGGTAATCCAGGACAGTGAATACATTGA with THRa homodimer (NR concentration 90 nM), please?
0.946

Recorded PBM binding z-score for GGAACGAGGGCAAGTTGATAGCTGAGTTTGATGG with THRa homodimer (NR concentration 90 nM), please?
0.0146

Recorded PBM binding z-score for CCTGCTAGGTCATGGTCAGCTTATCTACAGTATG with THRa homodimer (NR concentration 90 nM), please?
1.52

Recorded PBM binding z-score for TCATATAGGTAATACTGGTGAAAGTCGGCATCTA with THRa homodimer (NR concentration 90 nM), please?
-0.05

Recorded PBM binding z-score for CCTAGCAGGCCAATCTGGATCACTCAAGGCTTGA with THRa homodimer (NR concentration 90 nM), please?
-0.7

Recorded PBM binding z-score for TCTAGTTGGTCACGTAGGTCACACACGACGGGTA with THRa homodimer (NR concentration 90 nM), please?
1.04

Recorded PBM binding z-score for CCGACTGGGGCAGAAAGGCTACCATACCATCCGG with THRa homodimer (NR concentration 90 nM), please?
-0.539
